- MEASURED_TARGET: PTK2 (Homo sapiens, UniProt Q05397)
- Construct: purchased Invitrogen PV3832
- Sequence (Q05397 whole entry): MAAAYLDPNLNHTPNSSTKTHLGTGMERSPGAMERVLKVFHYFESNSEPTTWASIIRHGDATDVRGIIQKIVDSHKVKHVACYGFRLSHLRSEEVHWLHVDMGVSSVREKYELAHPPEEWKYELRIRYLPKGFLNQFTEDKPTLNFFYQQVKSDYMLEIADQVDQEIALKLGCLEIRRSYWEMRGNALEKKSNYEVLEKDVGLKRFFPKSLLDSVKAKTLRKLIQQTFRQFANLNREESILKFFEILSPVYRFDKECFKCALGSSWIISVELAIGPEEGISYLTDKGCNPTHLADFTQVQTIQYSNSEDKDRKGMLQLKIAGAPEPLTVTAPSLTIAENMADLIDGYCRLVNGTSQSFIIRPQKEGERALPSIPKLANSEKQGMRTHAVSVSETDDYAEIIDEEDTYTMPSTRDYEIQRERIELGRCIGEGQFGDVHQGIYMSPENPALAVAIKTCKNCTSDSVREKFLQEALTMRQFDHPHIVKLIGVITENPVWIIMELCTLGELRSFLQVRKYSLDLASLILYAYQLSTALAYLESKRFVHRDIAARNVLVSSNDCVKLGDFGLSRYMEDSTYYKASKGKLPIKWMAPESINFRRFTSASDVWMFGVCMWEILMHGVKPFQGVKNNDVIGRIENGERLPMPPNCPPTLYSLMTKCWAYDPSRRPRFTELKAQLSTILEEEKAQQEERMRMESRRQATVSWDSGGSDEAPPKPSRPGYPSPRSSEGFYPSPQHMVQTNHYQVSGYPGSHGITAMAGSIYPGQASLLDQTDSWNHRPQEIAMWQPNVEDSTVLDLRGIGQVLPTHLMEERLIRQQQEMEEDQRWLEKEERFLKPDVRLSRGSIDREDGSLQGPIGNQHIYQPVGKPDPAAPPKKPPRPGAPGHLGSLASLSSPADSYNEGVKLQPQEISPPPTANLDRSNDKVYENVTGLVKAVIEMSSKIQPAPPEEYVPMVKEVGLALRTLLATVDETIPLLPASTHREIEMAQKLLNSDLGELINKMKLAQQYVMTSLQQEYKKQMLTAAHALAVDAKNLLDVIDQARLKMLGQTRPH
- ASSAY_SUMMARY: PTK2 enzyme test Assay 1 (DELFIA, poly-Glu-Tyr substrate, PT60 antibody)
- Assay type: biochemical
- TEST_CONDITIONS: Assay 1 (values without *); 1 h pre-incubation, 50 μM ATP mix, final DMSO 2%
Please go through the items and note down their IC50.
Return type: number; implicit unit nM.

Query :: Form field: IC50 recorded for COCCN1CCC(NC(=O)c2ccc(Nc3ncc(C(F)(F)F)c(N[C@@H]4Cc5ccccc5[C@H]4NC(C)=O)n3)c(OC)c2)CC1 [Example I-13] with PTK2 (Homo sapiens, UniProt Q05397) (enter value)
Result :: 3

Query :: Can you handle COc1cc(C(=O)NC2CCN(C)CC2)c(Cl)cc1Nc1ncc(C(F)(F)F)c(N[C@@H]2Cc3ccccc3[C@H]2N(C)S(C)(=O)=O)n1 [Example I-60] next?
Result :: 1

Query :: Try this compound too: COc1cc(C(=O)NC2CCN(C)CC2)ccc1Nc1ncc(Br)c(N[C@@H]2Cc3ccccc3[C@H]2N(C)S(C)(=O)=O)n1 [Example I-98]
Result :: 1

###

Field: pIC50. Provide a value for each of the molecules that follow.
- MEASURED_TARGET: PTK2 (Homo sapiens)
- Construct: purchased Invitrogen PV3832
- ASSAY_SUMMARY: PTK2 enzyme test Assay 2 (DELFIA, poly-Glu-Tyr substrate, PT66 antibody)
- Format: biochemical
- TEST_CONDITIONS: Assay 2 (values marked *); 1 h pre-incubation, 50 μM ATP mix, final DMSO 0.5%
Scale for pIC50: -log10 of concentration given in mol/L; no unit attached.

Query :: Field: pIC50 (PTK2 (Homo sapiens)). Entry: COc1cc(NC(=O)C2CCN(C)CC2)ccc1Nc1ncc(C(F)(F)F)c(N[C@@H]2Cc3ccccc3[C@H]2N(C)S(C)(=O)=O)n1
Result :: 9.32

Query :: How about this molecule: COc1cc(N2CCNCC2=O)ccc1Nc1ncc(C(F)(F)F)c(N[C@@H]2Cc3ccccc3[C@H]2N(C)S(C)(=O)=O)n1
Result :: 9.32

Query :: And then COc1cc(N2CCN(C)CC2)c(C)cc1Nc1ncc(C(F)(F)F)c(N[C@@H]2Cc3ccccc3[C@H]2N(C)S(C)(=O)=O)n1 , what is it?
Result :: 9.25

Query :: Next record, please: COc1cc(N2CCN(C)CC2=O)ccc1Nc1ncc(C(F)(F)F)c(N[C@@H]2Cc3ccccc3[C@H]2N(C)S(C)(=O)=O)n1
Result :: 9.51

Query :: Please answer likewise for COc1cc(NC(=O)C2CCN(C)C2)ccc1Nc1ncc(C(F)(F)F)c(N[C@@H]2Cc3ccccc3[C@H]2N(C)S(C)(=O)=O)n1 (stereo partly drawn)
Result :: 9.13

Query :: Next molecule: COc1cc(C)c(C(=O)NC2CCOCC2)cc1Nc1ncc(C(F)(F)F)c(N[C@@H]2Cc3ccccc3[C@H]2N(C)S(C)(=O)=O)n1
Result :: 9.44

###

- MEASURED_TARGET: PTK2 (Homo sapiens, UniProt Q05397)
- Construct: purchased Invitrogen PV3832
- ASSAY_SUMMARY: PTK2 enzyme test Assay 1 (DELFIA, poly-Glu-Tyr substrate, PT60 antibody)
- Type: biochemical
- TEST_CONDITIONS: Assay 1 (values without *); 1 h pre-incubation, 50 μM ATP mix, final DMSO 2%
Please go through the items and note down their pIC50.
pIC50 (log units): -log10 of the concentration in mol/L.

Query :: Which pIC50 reading was recorded for the compound COc1cc(N2CCN(CC(=O)N(C)C)CC2)ccc1Nc1ncc(C(F)(F)F)c(N[C@@H]2Cc3ccccc3[C@H]2N(C)S(C)(=O)=O)n1 ?
Result :: 8.52

Query :: COc1cc(C(=O)NCCN(C)C)c(C)cc1Nc1ncc(C(F)(F)F)c(N[C@@H]2Cc3ccccc3[C@H]2N(C)S(C)(=O)=O)n1 ?
Result :: 9.08

Query :: Same question for COc1cc(C(=O)NC2CCOCC2)ccc1Nc1ncc(C(F)(F)F)c(N[C@@H]2Cc3ccccc3[C@H]2NC(C)=O)n1 please.
Result :: 8.40

Query :: Quick one: CNC(=O)c1ccc(Nc2ncc(C(F)(F)F)c(N[C@@H]3Cc4ccccc4[C@H]3NS(C)(=O)=O)n2)c(OC)c1
Result :: 8.70

Query :: Same again, this time with COc1cc(C(=O)NC2CCN(C)CC2)ccc1Nc1ncc(C(F)(F)F)c(N[C@@H]2Cc3ccccc3[C@H]2N(C)S(C)(=O)=O)n1
Result :: 8.70

Query :: Input COc1cc(N2CCNCC2)ccc1Nc1ncc(C(F)(F)F)c(N[C@@H]2Cc3ccccc3[C@H]2N(C)S(C)(=O)=O)n1
Result :: 9.01

Query :: What would you report for CCN1CCC(NC(=O)c2ccc(Nc3ncc(C(F)(F)F)c(N[C@@H]4Cc5ccccc5[C@H]4NC(C)=O)n3)c(OC)c2)CC1 ?
Result :: 8.70

Query :: Queued: CNC(=O)c1cc(OC)c(Nc2ncc(C(F)(F)F)c(N[C@@H]3Cc4ccccc4[C@H]3N(C)S(C)(=O)=O)n2)cc1F
Result :: 8.22

Query :: Similarly, COc1cc(C(=O)NCCN(C)C)ccc1Nc1ncc(C(F)(F)F)c(N[C@@H]2Cc3ccccc3[C@H]2NS(C)(=O)=O)n1 ?
Result :: 8.70

Query :: Now give it for COc1cc(C(=O)NCCN(C)C)c(Cl)cc1Nc1ncc(C(F)(F)F)c(N[C@@H]2Cc3ccccc3[C@H]2N(C)S(C)(=O)=O)n1 too.
Result :: 8.40
